molecular target: T1, recombinant human VEGF165 (human, UniProt P15692-4 27-191); assay: competition ELISA: VEGF165 binding to coated VEGFR2/Fc
T1 construct: also called rhVEGF165
T1 sequence (P15692 other isoform, or with tags, fused parts or gaps limits assumed): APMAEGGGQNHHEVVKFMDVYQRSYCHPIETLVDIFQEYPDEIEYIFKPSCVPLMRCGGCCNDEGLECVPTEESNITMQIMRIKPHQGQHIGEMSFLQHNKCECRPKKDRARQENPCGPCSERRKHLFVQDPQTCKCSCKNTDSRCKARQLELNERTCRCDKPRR
pIC50: −log10 of the molar value. Bridges are numbered along the chain shown (N, C = ends). [ ]: non-standard residue; d: D form. Nle = CCCC[C@H](N)C(=O)O

{"Binder": "Ac-VEPNCDIHVMWVWECFERLY-NH2 (disulfide 5-15 (inferred)) [[VEGF-Peptide] SEQ ID NO:41]", "pIC50": 7.16}
{"Binder": "Ac-VEPNCDIHVMWVWECFERLYGL-NH2 (disulfide 5-15 (inferred)) [[VEGF-Peptide] SEQ ID NO:72]", "pIC50": 8.32}
{"Binder": "Ac-VEPNCDIHVMWVWECFERLYGEF-NH2 (disulfide 5-15 (inferred)) [[VEGF-Peptide] SEQ ID NO:70]", "pIC50": 8.03}
{"Binder": "Ac-VEPNCDIHVMWVWECFERL[Nle]K-NH2 (disulfide 5-15) [[VEGF-Peptide] SEQ ID NO:54]", "pIC50": 7.54}
{"Binder": "Ac-VEPNCDIHVMWVWECFERLMREL-NH2 (disulfide 5-15 (inferred)) [[VEGF-Peptide] SEQ ID NO:63]", "pIC50": 7.62}
{"Binder": "Ac-VEPNCDIHVMWVWECFERLVK-NH2 (disulfide 5-15 (inferred)) [[VEGF-Peptide] SEQ ID NO:48]", "pIC50": 7.37}
{"Binder": "Ac-VEPNCDIHVMWVWECFERLYGIF-NH2 (disulfide 5-15 (inferred)) [[VEGF-Peptide] SEQ ID NO:40]", "pIC50": 7.11}
{"Binder": "Ac-VEPNCDIHVMWVWECFERLYG-NH2 (disulfide 5-15 (inferred)) [[VEGF-Peptide] SEQ ID NO:47]", "pIC50": 7.36}
{"Binder": "Ac-VEPNCDIHVMWVWECFERLYGLY-NH2 (disulfide 5-15 (inferred)) [[VEGF-Peptide] SEQ ID NO:44]", "pIC50": 7.26}
{"Binder": "Ac-VEPNCDIHVMWVWECFERLMK-NH2 (disulfide 5-15 (inferred)) [[VEGF-Peptide] SEQ ID NO:62]", "pIC50": 7.60}
{"Binder": "Ac-VEPNCDIHVMWVWVCFERLMK-NH2 (disulfide 5-15 (inferred)) [[VEGF-Peptide] SEQ ID NO:38]", "pIC50": 7.03}
{"Binder": "Ac-VEPNCDIHVMWVWECFERLYGPL-NH2 (disulfide 5-15 (inferred)) [[VEGF-Peptide] SEQ ID NO:76]", "pIC50": 8.64}
{"Binder": "Ac-VEPNCDIHVMWVWECFERLSGGG-NH2 (disulfide 5-15 (inferred)) [[VEGF-Peptide] SEQ ID NO:45]", "pIC50": 7.29}
{"Binder": "Ac-VEPNCDIHVMWVWECFERLMR-NH2 (disulfide 5-15 (inferred)) [[VEGF-Peptide] SEQ ID NO:49]", "pIC50": 7.46}
{"Binder": "Ac-VEPNCDIHVMWVWECFERLYGVQ-NH2 (disulfide 5-15 (inferred)) [[VEGF-Peptide] SEQ ID NO:74]", "pIC50": 8.40}
{"Binder": "Ac-VEPNCDIHVMWVWECFERLLK-NH2 (disulfide 5-15 (inferred)) [[VEGF-Peptide] SEQ ID NO:67]", "pIC50": 8.00}
{"Binder": "Ac-VEPNCDIHVMWVWECFERLYGGG-NH2 (disulfide 5-15 (inferred)) [[VEGF-Peptide] SEQ ID NO:61]", "pIC50": 7.63}
{"Binder": "Ac-VEPNCDIHVMWVWECFERLMRLT-NH2 (disulfide 5-15 (inferred)) [[VEGF-Peptide] SEQ ID NO:46]", "pIC50": 7.36}
{"Binder": "Ac-VEPNCDIHVMWVWECFERL-NH2 (disulfide 5-15 (inferred)) [[VEGF-Peptide] SEQ ID NO:64]", "pIC50": 7.62}
{"Binder": "Ac-VEPNCDIHVMWVWECFERLMGLT-NH2 (disulfide 5-15 (inferred)) [[VEGF-Peptide] SEQ ID NO:59]", "pIC50": 7.60}
{"Binder": "Ac-VEPNCDIHVMWVWECFERLYGLS-NH2 (disulfide 5-15 (inferred)) [[VEGF-Peptide] SEQ ID NO:71]", "pIC50": 8.27}
